test system: A549 NSCLC; experiment: NCI tumour cell line growth inhibition, 48 h
propertyMeasured: TGI

// solved cases for TGI follow
{"columns": ["compound", "subjectOfTest", "recordedMeasurement"],
 "data": [
  ["Oc1ccc(-c2nc3ccccc3s2)cc1", "A549 NSCLC", "> 100 µM"],
  ["C=C1CC(C)(c2cccc(Nc3nc4ccccc4c4occc34)c2)OC1=O (stereo unspecified)", "A549 NSCLC", "46.3 µM"],
  ["O=C(O)c1ccccc1C1c2ccccc2Oc2ccccc21", "A549 NSCLC", "> 100 µM"],
  ["CC(C)OC(=S)Nc1ccc(Cl)c(/C=N/OC(C)(C)C)c1", "A549 NSCLC", "40 µM"],
  ["O=C(O)/C(Cc1cn[nH]n1)=N\\O", "A549 NSCLC", "> 100 µM"]
]}

# next compound below
Query: Give the measured TGI for CCC(=O)OC1CCn2c1nc1c2C(=O)C(C)=C(NC(C)=O)C1=N (stereo unspecified)
Response: 10.2 µM
